Test system: transglutaminase (TGase)
experiment description: Measurement of TG (TGase inhibitory activity, monodansyl cadaverine / N,N-dimethylcasein fluorescence, FDSS 3000)
Assay type: biochemical
settings: TGase inhibitory activity value, Table 1
measure name: TGase activity remaining (% of DMSO control = 100)

>  <compound>
CCC(N)COB(c1ccc(C)c(Cl)c1)c1ccc(C)c(Cl)c1 (stereo not shown)

>  <value reported>
40

$$$$
>  <compound>
COc1ccc(F)cc1B(O)c1ccc(COCc2ccc(B(O)c3cc(F)ccc3OC)cc2)cc1

>  <value reported>
104

$$$$
>  <compound>
CC(C)CC(N)C(=O)OB(c1ccccc1)c1ccccc1 (stereo not shown) [Example 261, diphenyl(leucinate-O,N)borane]

>  <value reported>
109

$$$$
>  <compound>
Cc1ccc(B(OCCN)c2ccc(B(OCCN)c3ccc(C)c(Cl)c3)cc2)cc1Cl

>  <value reported>
143

$$$$
